B1: HDV Ribozyme (parent)
chain: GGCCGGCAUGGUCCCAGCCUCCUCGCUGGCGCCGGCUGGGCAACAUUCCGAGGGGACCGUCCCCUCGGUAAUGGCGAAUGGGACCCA

Variants of: B1
methodSummary: self-cleavage, relative activity (ratio to wild type); higher = more cleavage; co-transcriptional
Param threshold (0.2) applies to self-cleavage; output y when value >= threshold, n when value < threshold.

>>> print(df.to_string())
    variantidentifier  cat
 0           U9C G35A    y
 1          A56C A77C    y
 2          A70G G80A    y
 3           A8G C33A    n
 4           C7U A56G    y
 5          G29A U60A    n
 6           C7A G11C    n
 7          C18G U72A    n
 8          U72C C84G    y
 9          G53C C57G    y
10          U20A A83G    n
11          G28U C32A    n
12          U20G G82A    n
13          C66U G82U    y
14           C4G C19A    n
15          G31C G40A    y
16          A70C C86U    y
17           C3U G82A    y
18          C36G G76A    n
19          G29C C30A    n
20          U60G C66G    y
21           G6U U27G    n
22          A43C G50C    y
23           C3U G40C    y
24          C13U G35C    n
25          U37C G38C    y
26            C3U C4A    n
27          C33A C62G    y
28          U12C C61G    y
29          U12G C49A    y
30          G52A G67U    y
31          U72G U79A    y
32           C4A A45C    n
